Target sequence: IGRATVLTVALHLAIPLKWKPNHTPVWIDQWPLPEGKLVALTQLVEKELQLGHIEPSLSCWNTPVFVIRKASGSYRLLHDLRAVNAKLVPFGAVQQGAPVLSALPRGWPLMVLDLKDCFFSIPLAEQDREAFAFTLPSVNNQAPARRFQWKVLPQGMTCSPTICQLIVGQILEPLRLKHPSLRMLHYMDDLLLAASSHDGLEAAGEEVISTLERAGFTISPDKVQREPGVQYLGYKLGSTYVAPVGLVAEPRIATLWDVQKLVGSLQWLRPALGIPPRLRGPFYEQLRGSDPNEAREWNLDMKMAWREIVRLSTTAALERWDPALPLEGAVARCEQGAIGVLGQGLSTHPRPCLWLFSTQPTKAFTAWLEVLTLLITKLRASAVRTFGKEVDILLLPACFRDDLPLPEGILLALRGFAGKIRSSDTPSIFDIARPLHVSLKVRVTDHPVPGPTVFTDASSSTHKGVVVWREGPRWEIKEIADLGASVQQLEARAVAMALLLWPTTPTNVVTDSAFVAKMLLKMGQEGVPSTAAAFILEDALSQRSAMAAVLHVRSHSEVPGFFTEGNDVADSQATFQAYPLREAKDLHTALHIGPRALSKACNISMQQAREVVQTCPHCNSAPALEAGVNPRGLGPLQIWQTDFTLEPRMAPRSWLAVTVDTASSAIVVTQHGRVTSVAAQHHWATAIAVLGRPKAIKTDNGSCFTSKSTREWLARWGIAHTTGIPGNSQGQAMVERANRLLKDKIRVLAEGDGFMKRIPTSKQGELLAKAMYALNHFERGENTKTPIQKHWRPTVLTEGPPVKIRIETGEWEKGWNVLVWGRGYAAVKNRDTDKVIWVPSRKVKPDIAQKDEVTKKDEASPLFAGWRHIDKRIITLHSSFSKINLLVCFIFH
value-type: IC50

- Nc1ncnc2c1ncn2C1O[C@H](COP(=O)(O)C(F)F)[C@@H](O)[C@H]1O (stereo partly specified): > 1050 µM

###

Below is a list of entries, each paired with its recorded pIC50 value.
# tested-target: UniProt:Q72547
# measurement-description: The compound was evaluated as inhibitor of recombinant HIV-l reverse transcriptase
pIC50: −log10 of the molar value.
value-type: pIC50

- Cc1cn([C@H]2C[C@H](N=[N+]=[N-])[C@@H](CO[P@](=O)(O)O[P@](=O)(O)OP(=O)(O)O)O2)c(=O)[nH]c1=O [ZIDOVUDINE TRIPHOSPHATE]: 6.63
- Cc1cn(C2CC(N=[N+]=[N-])C(COP(=O)(O)CF)O2)c(=O)[nH]c1=O (stereo unspecified): 3.96
- Cc1cn(C2CC(N=[N+]=[N-])C(COP(=O)(O)C(F)F)O2)c(=O)[nH]c1=O (stereo unspecified): 4.26
- O=c1[nH]c(=O)n([C@H]2C[C@H](O)[C@@H](COP(=O)(O)C(F)(F)F)O2)cc1F: 4.32
- Cc1cn(C2CC(N=[N+]=[N-])C(COP(=O)(O)C(F)(F)F)O2)c(=O)[nH]c1=O (stereo unspecified): 4.52

###

# tested-target: Human immunodeficiency virus type 1 reverse transcriptase (Human immunodeficiency virus 1, UniProt Q72547)
# measurement-description: Compound was evaluated as inhibitor of recombinant HIV-l reverse transcriptase
pIC50: −log10 of the molar value.
value-type: pIC50

* Cc1cn([C@H]2C[C@H](N=[N+]=[N-])[C@@H](CO)O2)c(=O)[nH]c1=O [ZIDOVUDINE] | 2.52
